Reference source: patent US20120122948A1

Target: MPO (Homo sapiens, UniProt P05164)
Construct: made in house
Sequence (P05164 49-745): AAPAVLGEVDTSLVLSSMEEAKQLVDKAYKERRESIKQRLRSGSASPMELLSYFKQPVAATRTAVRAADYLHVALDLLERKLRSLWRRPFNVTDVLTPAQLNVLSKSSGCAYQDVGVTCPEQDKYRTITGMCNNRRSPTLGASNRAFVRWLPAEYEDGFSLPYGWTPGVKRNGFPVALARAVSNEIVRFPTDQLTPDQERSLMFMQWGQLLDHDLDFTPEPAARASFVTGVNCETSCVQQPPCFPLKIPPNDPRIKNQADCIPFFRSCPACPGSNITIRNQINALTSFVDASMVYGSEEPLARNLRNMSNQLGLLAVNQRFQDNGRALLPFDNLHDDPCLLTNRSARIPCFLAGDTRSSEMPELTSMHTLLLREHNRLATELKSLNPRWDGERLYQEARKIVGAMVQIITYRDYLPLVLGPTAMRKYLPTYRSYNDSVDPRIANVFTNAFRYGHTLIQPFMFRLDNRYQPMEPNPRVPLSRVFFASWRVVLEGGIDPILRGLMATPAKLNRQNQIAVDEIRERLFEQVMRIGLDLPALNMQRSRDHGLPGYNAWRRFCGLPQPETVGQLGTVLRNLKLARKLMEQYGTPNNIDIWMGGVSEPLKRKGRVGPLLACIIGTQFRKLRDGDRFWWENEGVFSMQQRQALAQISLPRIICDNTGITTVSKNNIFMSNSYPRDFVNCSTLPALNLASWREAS
Experiment: Inhibition of LDL oxidation by MPO, ELISA with Mab AG9
Assay type: biochemical
Details: 5 min, pH 7.2, read-out: LDL oxidation (%)
property: remaining activity at 0.05 µM (%)
Answers are plain numbers, in %.

A selection of reference data follows.
{"compound": "Fc1ccc2[nH]cc(CCN3CCCC3)c2c1 [Compound E]", "target under test": "MPO (Homo sapiens, UniProt P05164)", "units text": "%", "numeric readout": 49.2}
{"compound": "CN(C)CCc1c[nH]c2ccc(F)cc12 [Compound D]", "target under test": "MPO (Homo sapiens, UniProt P05164)", "units text": "%", "numeric readout": 91.7}
{"compound": "CCN(CC)CCc1c[nH]c2ccc(F)cc12 [Compound F]", "target under test": "MPO (Homo sapiens, UniProt P05164)", "units text": "%", "numeric readout": 80.1}

Please find the next compound below.
remaining activity at 0.05 µM reading for NCCc1c[nH]c2ccc(F)cc12 [Compound A, 5-fluorotryptamine, reference compound] : 119
